From: paper PMC5362474

Biological target: recombinant human c-Met residues 974-end (Homo sapiens, UniProt P08581)
Construct: recombinant human c-Met residues 974-end; 6His; purchased Millipore
Sequence (P08581 974-1390 limits assumed): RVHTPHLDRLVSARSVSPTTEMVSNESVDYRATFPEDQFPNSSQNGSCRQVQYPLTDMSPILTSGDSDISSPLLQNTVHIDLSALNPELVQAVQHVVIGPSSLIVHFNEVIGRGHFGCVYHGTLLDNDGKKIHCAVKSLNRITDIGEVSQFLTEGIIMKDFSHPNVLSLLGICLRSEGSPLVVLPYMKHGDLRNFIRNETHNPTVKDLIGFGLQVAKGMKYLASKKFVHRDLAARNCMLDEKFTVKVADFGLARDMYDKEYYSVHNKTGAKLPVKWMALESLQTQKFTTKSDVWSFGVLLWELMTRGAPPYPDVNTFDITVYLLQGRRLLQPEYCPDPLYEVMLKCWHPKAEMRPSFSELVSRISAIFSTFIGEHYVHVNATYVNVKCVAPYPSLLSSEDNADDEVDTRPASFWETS
Assay: Inhibition of c-Met kinase (TR-FRET)
Format: biochemical
Conditions: 6.25 μM; read-out: Inhibitory rate on c-Met kinase
property.label: inhibition at 6.25 µM (%)
Answers are plain numbers, in %.

Please give inhibition at 6.25 µM for each item listed below.
1. CC(C)=C1C/C=C(\C)CC/C=C(\C)CC1O (stereo not shown)
2. CC(C)=C1C/C=C(\C)CC/C=C(\C)CC1OC(=O)/C=C\c1ccccc1 (stereo not shown)
3. CC(C)=C1C/C=C(\C)CC/C=C(\C)CC1=O [Compound 1, germacrone, reference compound]

[64.2, 70.3, 69.2]

Please give inhibition at 6.25 µM for each item listed below.
1. CC(C)=C1C/C=C(\C)CC/C=C(\C)CC1OC(=O)c1cccc(C)c1 (stereo not shown)
2. CC(C)=C1C/C=C(\C)CC/C=C(\C)CC1OC(=O)c1ccc(C)cc1 (stereo not shown)

1: 70; 2: 72.6

Please give inhibition at 6.25 µM for each item listed below.
1. CC(C)=C1C/C=C(\C)CC/C=C(\C)CC1OC(=O)c1ccc(C(F)(F)F)cc1 (stereo not shown)
2. CC(=O)OC1C/C(C)=C/CC/C(C)=C/CC1=C(C)C (stereo not shown)

1. 69
2. 69

====

Molecular target: recombinant human c-Met residues 974-end (Homo sapiens)
Construct: recombinant human c-Met residues 974-end; 6His; purchased Millipore
Test: Inhibition of c-Met kinase (TR-FRET)
Type: biochemical
Details: 0.19 μM; read-out: Inhibitory rate on c-Met kinase
property.label: inhibition at 0.19 µM

> print(dat)
                                   molecule         property.label  measured.value
1  CC(C)=C1C/C=C(\C)CC/C=C(\C)CC1OC(=O)/C=C\c1ccccc1 (stereo not shown) [Compound 3e]  inhibition at 0.19 µM           28.3%
2  CC(C)=C1C/C=C(\C)CC/C=C(\C)CC1=O [Compound 1, germacrone, reference compound]  inhibition at 0.19 µM           23.4%
3  CC(=O)OC1C/C(C)=C/CC/C(C)=C/CC1=C(C)C (stereo not shown) [Compound 3a]  inhibition at 0.19 µM           26.3%

# input for lookup
What value of measured inhibition at 0.19 µM is listed for CC(C)=C1C/C=C(\C)CC/C=C(\C)CC1OC(=O)c1ccc(C)cc1 (stereo not shown) [Compound 3b] ?
35.6%

====

System: Hela cells
Assay: MTT proliferation assay on HeLa cells
Type: cell-based
Conditions: Homo sapiens, 48 h
Please respond with reported pIC50 for every item in the list.
One number for each entry, as −log10 of the molar value.

Consider the following illustrative entries.
> print(dat)
                                   compound  property.label  measured.value
1  CC(C)=C1C/C=C(\C)CC/C=C(\C)CC1=O [Compound 1, germacrone, reference compound]           pIC50            3.78
2  CC(C)=C1C/C=C(\C)CC/C=C(\C)CC1OC(=O)c1cccc(C)c1 (stereo not shown)           pIC50            4.08
3  CC(=O)OC1C/C(C)=C/CC/C(C)=C/CC1=C(C)C (stereo not shown)           pIC50            3.82

What value of measured pIC50 is listed for CC(C)=C1C/C=C(\C)CC/C=C(\C)CC1OC(=O)c1ccc(C)cc1 (stereo not shown) ?
4.08
